assay: Stability confirmation test (impurity formation during storage under severe conditions, liquid chromatography); format: physicochemical; details: moisture-proof condition (60° C., less than 10% relative humidity), Initial
measured_attribute: Peak area of main component (%)

1) CNCc1cn(S(=O)(=O)c2cccc(F)c2)c(-c2ccc(F)cc2F)c1OC.O=C(O)C(O)C(O)C(=O)O [Example 4-1] = 99.52
2) CNCc1cn(S(=O)(=O)c2cccc(F)c2)c(-c2ccc(F)cc2F)c1OC.Cl [Example 1-1] = 99.82
3) CNCc1cn(S(=O)(=O)c2cccc(F)c2)c(-c2ccc(F)cc2F)c1OC.O=C(O)CCC(=O)O [Example 3-1] = 99.55
4) CNCc1cn(S(=O)(=O)c2cccc(F)c2)c(-c2ccc(F)cc2F)c1OC.O=C(O)/C=C/C(=O)O [Example 5-1] = 99.38
